Target: Cytochrome P450 2C9 (Homo sapiens)
Sequence (P11712 whole entry): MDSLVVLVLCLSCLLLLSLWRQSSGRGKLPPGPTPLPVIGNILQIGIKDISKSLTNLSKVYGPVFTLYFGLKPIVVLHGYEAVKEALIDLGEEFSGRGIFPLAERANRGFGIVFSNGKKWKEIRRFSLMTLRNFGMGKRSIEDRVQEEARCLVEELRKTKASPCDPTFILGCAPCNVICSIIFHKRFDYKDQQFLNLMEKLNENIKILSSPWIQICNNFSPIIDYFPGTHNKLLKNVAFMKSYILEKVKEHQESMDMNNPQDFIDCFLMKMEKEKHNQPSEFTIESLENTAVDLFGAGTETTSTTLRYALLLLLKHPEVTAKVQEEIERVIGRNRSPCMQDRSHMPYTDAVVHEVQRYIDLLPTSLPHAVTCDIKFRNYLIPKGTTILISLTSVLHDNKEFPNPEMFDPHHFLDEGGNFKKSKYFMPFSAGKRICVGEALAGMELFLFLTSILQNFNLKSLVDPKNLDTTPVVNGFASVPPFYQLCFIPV
pIC50: −log10 of the molar value.
Readout Label: pIC50

> print(dat)
                                item.smiles                      assayed.system  readout.label  value.reported
1  C[C@@H]1COCCN1c1nc(-c2cccc3[nH]ccc23)nc2c1CN(C(=O)c1ccc3c(c1)OCO3)C2(C)C  Cytochrome P450 2C9 (Homo sapiens)          pIC50            5.00

---

pIC50 tested on Serine/threonine-protein kinase ATR (Homo sapiens, UniProt Q13535): recorded values
Sequence (Q13535 whole entry): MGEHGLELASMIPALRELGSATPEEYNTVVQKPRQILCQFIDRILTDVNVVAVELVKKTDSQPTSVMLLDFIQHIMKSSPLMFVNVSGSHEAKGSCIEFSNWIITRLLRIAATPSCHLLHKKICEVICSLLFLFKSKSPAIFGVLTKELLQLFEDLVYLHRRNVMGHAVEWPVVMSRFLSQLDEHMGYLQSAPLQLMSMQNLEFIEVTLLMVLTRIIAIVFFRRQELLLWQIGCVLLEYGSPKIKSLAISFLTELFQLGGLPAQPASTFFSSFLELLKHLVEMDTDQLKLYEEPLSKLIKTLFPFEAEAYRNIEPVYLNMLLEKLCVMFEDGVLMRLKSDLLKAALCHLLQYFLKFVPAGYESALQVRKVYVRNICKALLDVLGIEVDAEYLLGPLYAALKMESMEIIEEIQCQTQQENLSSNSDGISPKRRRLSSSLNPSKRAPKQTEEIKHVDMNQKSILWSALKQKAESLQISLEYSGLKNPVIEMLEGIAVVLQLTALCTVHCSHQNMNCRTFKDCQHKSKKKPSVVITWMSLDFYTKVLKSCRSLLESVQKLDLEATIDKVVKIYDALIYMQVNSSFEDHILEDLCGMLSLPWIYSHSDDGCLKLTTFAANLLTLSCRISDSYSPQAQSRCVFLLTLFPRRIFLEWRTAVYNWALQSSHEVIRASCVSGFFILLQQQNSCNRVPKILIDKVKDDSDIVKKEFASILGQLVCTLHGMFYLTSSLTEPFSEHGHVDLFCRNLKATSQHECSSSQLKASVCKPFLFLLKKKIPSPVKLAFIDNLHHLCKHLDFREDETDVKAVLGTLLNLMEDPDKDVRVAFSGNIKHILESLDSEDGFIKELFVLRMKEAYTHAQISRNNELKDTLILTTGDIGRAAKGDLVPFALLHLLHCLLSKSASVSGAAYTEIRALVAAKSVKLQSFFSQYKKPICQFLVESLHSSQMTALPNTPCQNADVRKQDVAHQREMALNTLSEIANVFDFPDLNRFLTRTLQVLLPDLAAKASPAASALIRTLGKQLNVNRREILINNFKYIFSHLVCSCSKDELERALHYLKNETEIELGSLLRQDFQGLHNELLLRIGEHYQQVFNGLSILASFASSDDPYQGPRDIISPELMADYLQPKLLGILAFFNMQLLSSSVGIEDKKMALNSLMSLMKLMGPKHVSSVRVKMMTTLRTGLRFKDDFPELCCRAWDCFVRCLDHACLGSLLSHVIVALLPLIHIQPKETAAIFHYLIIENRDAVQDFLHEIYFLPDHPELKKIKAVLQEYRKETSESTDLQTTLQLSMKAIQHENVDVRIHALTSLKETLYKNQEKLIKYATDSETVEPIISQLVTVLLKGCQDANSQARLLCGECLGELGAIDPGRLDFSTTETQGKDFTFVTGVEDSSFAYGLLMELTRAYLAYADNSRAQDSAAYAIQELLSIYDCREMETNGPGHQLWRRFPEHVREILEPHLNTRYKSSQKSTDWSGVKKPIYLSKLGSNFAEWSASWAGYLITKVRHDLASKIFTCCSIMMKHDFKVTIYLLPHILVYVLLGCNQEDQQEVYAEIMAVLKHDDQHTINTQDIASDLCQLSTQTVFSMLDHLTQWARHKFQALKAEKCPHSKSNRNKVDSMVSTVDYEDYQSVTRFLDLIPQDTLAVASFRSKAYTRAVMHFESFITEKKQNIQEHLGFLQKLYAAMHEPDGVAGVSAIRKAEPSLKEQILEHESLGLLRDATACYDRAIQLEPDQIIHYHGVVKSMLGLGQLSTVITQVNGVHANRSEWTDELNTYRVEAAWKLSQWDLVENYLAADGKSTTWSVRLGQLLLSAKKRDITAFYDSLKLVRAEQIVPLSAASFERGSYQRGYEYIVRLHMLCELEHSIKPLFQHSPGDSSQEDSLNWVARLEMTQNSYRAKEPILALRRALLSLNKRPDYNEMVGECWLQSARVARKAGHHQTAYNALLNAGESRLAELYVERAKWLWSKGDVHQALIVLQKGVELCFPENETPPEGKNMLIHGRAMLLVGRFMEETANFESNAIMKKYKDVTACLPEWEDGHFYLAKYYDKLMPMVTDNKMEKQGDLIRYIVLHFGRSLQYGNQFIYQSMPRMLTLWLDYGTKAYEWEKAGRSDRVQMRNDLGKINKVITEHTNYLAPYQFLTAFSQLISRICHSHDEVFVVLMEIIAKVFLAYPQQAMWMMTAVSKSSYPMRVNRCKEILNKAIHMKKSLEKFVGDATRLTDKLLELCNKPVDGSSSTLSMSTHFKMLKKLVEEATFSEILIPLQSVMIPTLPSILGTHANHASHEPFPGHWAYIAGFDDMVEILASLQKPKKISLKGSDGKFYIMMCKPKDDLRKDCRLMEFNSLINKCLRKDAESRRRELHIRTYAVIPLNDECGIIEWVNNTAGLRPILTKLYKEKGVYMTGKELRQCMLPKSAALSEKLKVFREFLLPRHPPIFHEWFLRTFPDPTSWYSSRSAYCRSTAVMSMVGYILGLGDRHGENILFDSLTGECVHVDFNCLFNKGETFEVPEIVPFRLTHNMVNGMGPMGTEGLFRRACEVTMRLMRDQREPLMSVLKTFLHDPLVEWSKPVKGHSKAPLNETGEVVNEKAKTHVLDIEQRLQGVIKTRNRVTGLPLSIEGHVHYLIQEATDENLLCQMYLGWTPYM
pIC50: −log10 of the molar value.
Readout Label: pIC50

> print(dat)
                                 item.smiles  bound.type  value.reported
 1  CC(=O)N1Cc2c(N3CCOC[C@H]3C)nc(-c3cccc4[nH]ccc34)nc2C1(C)C           =            8.70
 2  CC(C)C(=O)N1CCc2nc(-c3cccc4[nH]ccc34)nc(N3CCOC[C@H]3C)c2C1           <            7.00
 3  C[C@@H]1COCCN1c1nc(-c2cccc3[nH]ccc23)nc2c1CCN(C(=O)Cc1ccccc1)C2(C)C           =            7.66
 4  C[C@@H]1COCCN1c1nc(-c2cccc3[nH]ccc23)nc2c1CN(C(=O)c1ccc(S(C)(=O)=O)cc1)C2(C)C           =            8.40
 5  COc1cccc(C(=O)N2CCc3nc(-c4cccc5[nH]ccc45)nc(N4CCOC[C@H]4C)c3C2)c1           <            7.00
 6  COc1cccc(C(=O)N2CCc3c(nc(-c4cccc5[nH]ccc45)nc3N3CCOC[C@H]3C)C2)c1           =            7.12
 7  C[C@@H]1COCCN1c1nc(-c2cccc3[nH]ccc23)nc2c1CCN(C(=O)CN1CCN(C)CC1)C2(C)C           =            7.28
 8  C[C@@H]1COCCN1c1nc(-c2cccc3[nH]ccc23)nc2c1CCN(C(=O)C1CCC1)C2(C)C           =            7.77
 9  C[C@@H]1COCCN1c1nc(-c2cccc3[nH]ccc23)nc2c1CN(C(=O)c1ccc(OC(F)F)cc1)C2(C)C           =            8.30
10  CC(C)C(=O)N1CCc2c(N3CCOC[C@H]3C)nc(-c3cccc4[nH]ccc34)nc2C12CCC2           =            7.54
11  C[C@@H]1COCCN1c1nc(-c2cccc3[nH]ccc23)nc2c1CN(C(=O)c1ccc3c(c1)OCCO3)C2(C)C           =            8.40
12  C[C@@H]1COCCN1c1nc(-c2cccc3[nH]ccc23)nc2c1CCN(C(=O)C1CC1)C21CCC1           =            7.55
13  CC(C)C(=O)N1CCc2c(nc(-c3cccc4[nH]ccc34)nc2N2CCOC[C@H]2C)C1           =            7.82
14  C[C@@H]1COCCN1c1nc(-c2cccc3[nH]ccc23)nc2c1CCN(C(=O)c1cccc(Cl)c1)C2(C)C           =            7.37
15  CC(=O)N1CCc2c(nc(-c3cccc4[nH]ccc34)nc2N2CCOC[C@H]2C)C1           =            7.54
16  C[C@@H]1COCCN1c1nc(-c2cccc3[nH]ccc23)nc2c1CCN(C(=O)c1ccccc1)C2(C)C           =            8.05
17  C[C@@H]1COCCN1c1nc(-c2cccc3[nH]ccc23)nc2c1CN(C(=O)c1ccc(OC(F)(F)F)cc1)C2(C)C           =            7.38

Just for reference, ChEMBL document CHEMBL5331073 is where these values come from.
